Hello, the source for this data is patent US8871753B2, in case you need it.

# system-name: human JAK2 (a.a. 828-1132) (Homo sapiens, UniProt O60674)
# Construct: JAK2 (a.a. 828-1132); His tag (N); made in house; host or cells: insect cells (baculovirus)
# Sequence (O60674 828-1132): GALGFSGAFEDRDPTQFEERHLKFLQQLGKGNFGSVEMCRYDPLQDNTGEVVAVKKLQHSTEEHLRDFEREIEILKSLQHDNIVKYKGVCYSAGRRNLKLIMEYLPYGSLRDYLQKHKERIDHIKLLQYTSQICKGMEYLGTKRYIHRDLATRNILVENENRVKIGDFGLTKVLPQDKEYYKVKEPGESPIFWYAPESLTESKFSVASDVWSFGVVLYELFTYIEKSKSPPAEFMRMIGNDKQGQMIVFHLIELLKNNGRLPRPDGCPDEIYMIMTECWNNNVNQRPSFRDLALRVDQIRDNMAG
# procedure-details: In vitro JAK kinase assay (HTRF, phosphorylation of a biotinylated peptide), JAK2
# Assay type: biochemical
# assay-setup: method AA1 (30 μM ATP) or AA2 (1000 μM ATP), not stated per value
Counter-ions that a name gives are not always drawn.
The compounds listed here are annotated with their IC50.

Some entries whose results are on file:
compound	IC50
COc1cccc(S(=O)(=O)N2CCC(CC(=O)Nc3ccc4cc3CCc3cncc(c3)Nc3ncc(Cl)c(n3)N4)CC2)c1 [Example A196, bis(trifluoroacetate)]	100 nM
O=C(Nc1ccc2cc1CCc1cccc(c1)Nc1ncc(Cl)c(n1)N2)C1CCN(S(=O)(=O)c2ccccc2)CC1 [Example A42, trifluoroacetate]	24 nM
N#Cc1ccccc1N1CCC(CC(=O)Nc2ccc3cc2CCc2cncc(c2)Nc2ncc(Cl)c(n2)N3)CC1 [Example A220, tris(trifluoroacetate)]	180 nM
O=C(CC1CCN(c2ccnc(F)c2)CC1)Nc1ccc2cc1CCc1cncc(c1)Nc1ncc(Cl)c(n1)N2 [Example A244, tris(trifluoroacetate)]	171 nM
N#Cc1ccccc1S(=O)(=O)N1CCC(CC(=O)Nc2ccc3cc2CCc2cncc(c2)Nc2ncc(Cl)c(n2)N3)CC1 [Example A198, bis(trifluoroacetate)]	50 nM
O=C(CC1CCN(S(=O)(=O)c2ccccc2F)CC1)Nc1ccc2cc1CCc1cncc(c1)Nc1ncc(Cl)c(n1)N2 [Example A226, bis(trifluoroacetate)]	100 nM
O=C(Nc1ccc2cc1CCc1cccc(c1)Nc1ncc(Cl)c(n1)N2)C1CCCNC1 (centres unmarked) [Example A44, bis(trifluoroacetate)]	52 nM
Cc1cccc(NC(=O)N2CCC(CC(=O)Nc3ccc4cc3CCc3cncc(c3)Nc3ncc(Cl)c(n3)N4)CC2)c1 [Example A150, bis(trifluoroacetate)]	1.1 nM
Cc1cc(C(=O)N2CCC(C(=O)Nc3ccc4cc3CCc3cccc(c3)Nc3ncc(Cl)c(n3)N4)CC2)no1 [Example A120, trifluoroacetate]	16 nM
NS(=O)(=O)N1CCC(C(=O)Nc2ccc3cc2CCc2cccc(c2)Nc2ncc(Cl)c(n2)N3)CC1 [Example A72, trifluoroacetate]	3.7 nM

Please look at CC(C)N1CCC(CC(=O)Nc2ccc3cc2CCc2cncc(c2)Nc2ncc(Cl)c(n2)N3)CC1 [Example A140, tris(trifluoroacetate)] and tell me its recorded IC50 on human JAK2 (a.a. 828-1132) (Homo sapiens, UniProt O60674).
46 nM

Please look at O=C(CC1CCN(c2cccc(Cl)n2)CC1)Nc1ccc2cc1CCc1cncc(c1)Nc1ncc(Cl)c(n1)N2 [Example A180, tris(trifluoroacetate)] and tell me its recorded IC50 on human JAK2 (a.a. 828-1132) (Homo sapiens, UniProt O60674).
> 200 nM

Please look at Cc1ccnc(N2CCC(CC(=O)Nc3ccc4cc3CCc3cncc(c3)Nc3ncc(Cl)c(n3)N4)CC2)c1 [Example A176, tris(trifluoroacetate)] and tell me its recorded IC50 on human JAK2 (a.a. 828-1132) (Homo sapiens, UniProt O60674).
> 200 nM

Please look at N#Cc1ccccc1NC(=O)N1CCC(CC(=O)Nc2ccc3cc2CCc2cncc(c2)Nc2ncc(Cl)c(n2)N3)CC1 [Example A141, bis(trifluoroacetate)] and tell me its recorded IC50 on human JAK2 (a.a. 828-1132) (Homo sapiens, UniProt O60674).
12 nM

Please look at O=C(CC1CCN(c2ncco2)CC1)Nc1ccc2cc1CCc1cncc(c1)Nc1ncc(Cl)c(n1)N2 [Example A246, tris(trifluoroacetate)] and tell me its recorded IC50 on human JAK2 (a.a. 828-1132) (Homo sapiens, UniProt O60674).
120 nM

Please look at O=C(COc1ccc2cc1CCc1cccc(c1)Nc1ncc(Cl)c(n1)N2)N1CCN(C(=O)Nc2ccccc2)CC1 [Example A13, trifluoroacetate] and tell me its recorded IC50 on human JAK2 (a.a. 828-1132) (Homo sapiens, UniProt O60674).
2.6 nM

Please look at N#Cc1c(Cl)cccc1N1CCC(CC(=O)Nc2ccc3cc2CCc2cncc(c2)Nc2ncc(Cl)c(n2)N3)CC1 [Example A222, tris(trifluoroacetate)] and tell me its recorded IC50 on human JAK2 (a.a. 828-1132) (Homo sapiens, UniProt O60674).
> 200 nM
